Entries and their Ka values follow.
MEASURED_ON: T1, SpAKKAA (non-toxigenic staphylococcal protein A variant) (Staphylococcus aureus, UniProt A0A0H3K686 37-327)
T1 construct: The four substitutions are made in each of the five domains (20 in all); Purified from E. coli; also called non-toxigenic protein A
PROTOCOL_DESCRIPTION: ELISA, antigen-coated plate, mAb titrated
REPORTED_PROPERTY: Ka (M⁻¹)

INSERT INTO results (binder, reported_property, obs_value) VALUES
  ('mAb 3A6 (antibody, V domains shown, Mouse IgG1 hybridoma mAb) VH: QIQLVQSGPELKKPGETVKISCKASGYNFTDYSMHWVKQAPGKGLKWVGWINTETAESTYADDFKGRFAFSLETSASTAYLQINSLKDEDTATFFCAHFDCWGQGTTLTVSS VL: DVVMTQISLSLPVTLGDQASISCRASQSLVHSNGNTYLNWYLQKPGQSPKLLIHKVSNRFSGVPDRFSGSGSGTDFTLKISRVEAEDLGVYFCSQITYVPWTFGGGTKLEIK', 'Ka', '1.37e+09'),
  ('mAb 7E2 (antibody, V domains shown, Mouse IgG1 hybridoma mAb) VH: QIQLVQSGPELKKPGETVKISCKASGYTFTDYSVHWVKQAPGKGLKWMAWINTATGEPTFADDFKGRFAFSLETSARTAYLQINNLKNEDTATYFCAPQLTGPFAYWGHGTLVTVSA VL: DIQMTQSPASLSASVGETVTITCRASENIHNYLAWYQQKQGKSPQLLVYNAKTLTDGVPSRFSGSGSGTQFSLKINSLQAGDFGSYYCQHSWSIPYTFGGGTRLQIR', 'Ka', '3.1e+08'),
  ('mAb 3D11 (antibody, V domains shown, Mouse IgG2b hybridoma mAb raised against SpAKKAA; also called 3D11-HRP; HRP-3D11) VH: QSGPELMKPGASVKISCKASGYSFTSYYMHWVKQSHGKSLEWIGYIDPFNGGTSYNQKFKGKATLTVDKSSSTAYMHLSSLTSEDSAVYYCARYGYDGTFYAMDYWGQGTSVTVSS VL: RIVLTQSPAITAASLGQKVTITCSASSSVSYMHWYQQKSGTSPKPWIYEISKLASGVPARFSGSGSGTSYSLTISSMEAEDAAIYYCQQWSYPFTFGSGTKLEIK', 'Ka', '3.93e+09');
